Could you please report measured half-life for the items listed next?
Experiment: Metabolic stability in rat hepatocytes assessed as half life
Type: ADME, cell-based, Hepatocyte

Some entries whose results are on file:
molecule | recordedResult
O=c1oc2ccccc2c(O)c1C1CC(c2ccc(-c3ccccc3)cc2)Cc2ccccc21 (stereo not drawn) | 118 days
O=c1oc2ccccc2c(O)c1C1CC(c2ccc(OCc3ccc(C(F)(F)F)cc3)cc2)Cc2ccccc21 (stereo not drawn) | 215 days

The molecule O=c1oc2ccccc2c(O)c1C(CC(O)c1ccc(-c2ccc(Br)cc2)cc1)c1ccccc1 (stereo not drawn) showed half-life equal to 170 days
